- System: ATP;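 note: ATP exposure 15 min at 22 °C before imaging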
- Method description: switch fluorescence ratio, 500 uM ATP over buffer (Cy3 cluster intensity, sum of 5 cycles each) (fold (ratio)); higher = stronger signal-on switching upon ATP binding; sequences stand for … in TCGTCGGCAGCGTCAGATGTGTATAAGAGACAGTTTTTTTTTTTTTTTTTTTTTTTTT…TC
- Condition details: aptamer strand: ATP DNA aptamer (quencher-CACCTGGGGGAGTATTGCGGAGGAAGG + anchor), 100 nM annealed; ATP concentration: 500 uM
Measurement name: switch fluorescence ratio
The answer should be written as a number, with no unit following it.

[
  {
    "Residue sequence": "TTTTACACTT",
    "switch fluorescence ratio": 1.04
  },
  {
    "Residue sequence": "GCTTTTTGGG",
    "switch fluorescence ratio": 0.963
  },
  {
    "Residue sequence": "TTCCAAGACA",
    "switch fluorescence ratio": 1.01
  }
]

[in] Enter reported switch fluorescence ratio observed with ATP for `GGGGGCAGAG`
[out] 0.991

[in] Entry `GGGATTATCA` , system ATP: what switch fluorescence ratio was measured?;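 note: ATP exposure 15 min at 22 °C before imaging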
[out] 1.02

[in] Value wanted: switch fluorescence ratio (ATP) of entry `TTTCTCTGAT`
[out] 0.981

[in] Observed switch fluorescence ratio on ATP for `CTGTAGTAGC` , please.
[out] 2.38

###

- Tested on: ATP;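 note: ATP exposure 15 min at 22 °C before imaging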
- Method description: switch fluorescence ratio, 500 uM ATP over buffer (Cy3 cluster intensity, sum of 5 cycles each) (fold (ratio)); higher = stronger signal-on switching upon ATP binding; sequences stand for … in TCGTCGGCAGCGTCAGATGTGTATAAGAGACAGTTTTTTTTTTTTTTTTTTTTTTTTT…TC
- Condition details: aptamer strand: ATP DNA aptamer (quencher-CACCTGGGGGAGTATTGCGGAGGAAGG + anchor), 100 nM annealed; ATP concentration: 500 uM
Measured switch fluorescence ratio accompanies every entry in the list below.
Lab note: record the figure alone, no unit after it.

Example entries and their recorded answers appear below.
[
  {
    "Residue sequence": "TTTTTTGGGT",
    "switch fluorescence ratio": 0.994
  },
  {
    "Residue sequence": "GAGTCGAATT",
    "switch fluorescence ratio": 0.974
  },
  {
    "Residue sequence": "ATGTGGGTAT",
    "switch fluorescence ratio": 1.03
  },
  {
    "Residue sequence": "TGACAAAGGG",
    "switch fluorescence ratio": 0.988
  },
  {
    "Residue sequence": "CTATGGGGTG",
    "switch fluorescence ratio": 1.04
  }
]

[in] switch fluorescence ratio lookup needed for `ATCGGACGCT` , thanks.
[out] 1.06

[in] GET /values?readout=switch fluorescence ratio&item= `TGGAATGTTG`
[out] 1.02

[in] What value of switch fluorescence ratio has been recorded for this entry: `AGTGAGGGGT`
[out] 0.97

[in] Would you kindly share the measured switch fluorescence ratio for `AGAGTTTCTT` ?
[out] 0.981

[in] Need switch fluorescence ratio of `CGGTTTGGGT` , thanks.
[out] 0.993

[in] What switch fluorescence ratio value was documented for this sequence, `TCAGTAGGCT` ?
[out] 1.04

[in] Request the reported switch fluorescence ratio associated with `CCGGTTCAGG`
[out] 1.05

[in] Reported switch fluorescence ratio, sequence `TTGTGAGTCT` : ____
[out] 1.01

[in] What value of measured switch fluorescence ratio is listed for `GTCGGATGCT` ?
[out] 1.02

[in] # query: switch fluorescence ratio of entry `TTCGTTGAAT`
[out] 0.97

[in] switch fluorescence ratio lookup needed for `CGTTTTTTAT` , thanks.
[out] 1.02

[in] # lookup: switch fluorescence ratio of `TGCTGTTTAC`
[out] 1.2

[in] Please give the measured switch fluorescence ratio for this sequence: `GCGGCCTGGG`
[out] 1.02

[in] Given the entry `AGTTTCTTGT` , report its measured switch fluorescence ratio.
[out] 0.987

[in] Query (sequence): `AGCCGCTTCA` ; field requested: switch fluorescence ratio
[out] 0.98

[in] Using the record for `TTTTGTTCGG` , report its switch fluorescence ratio.
[out] 0.99

###

- System: ATP;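 note: ATP exposure 15 min at 22 °C before imaging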
- Method description: switch fluorescence ratio, 500 uM ATP over buffer (Cy3 cluster intensity, sum of 5 cycles each) (fold (ratio)); higher = stronger signal-on switching upon ATP binding; sequences stand for … in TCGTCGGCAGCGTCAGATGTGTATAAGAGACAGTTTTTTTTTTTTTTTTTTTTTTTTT…TC
- Condition details: aptamer strand: ATP DNA aptamer (quencher-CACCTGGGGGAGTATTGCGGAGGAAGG + anchor), 100 nM annealed; ATP concentration: 500 uM
Output condition met for switch fluorescence ratio not less than 1; output condition not met otherwise.

For orientation, consider the following solved cases.
[
  {
    "Residue sequence": "TTCGCGGCTA",
    "Class name": "condition met"
  },
  {
    "Residue sequence": "ACTAGAAGAC",
    "Class name": "condition met"
  },
  {
    "Residue sequence": "CGTGCAGGGT",
    "Class name": "condition met"
  }
]

[in] Decide: is the reported value of switch fluorescence ratio for `GGCGGTTTGA` equal to or greater than 1?
[out] condition not met

###

- System: ATP;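 note: ATP exposure 15 min at 22 °C before imaging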
- Method description: switch fluorescence ratio, 500 uM ATP over buffer (Cy3 cluster intensity, sum of 5 cycles each) (fold (ratio)); higher = stronger signal-on switching upon ATP binding; sequences stand for … in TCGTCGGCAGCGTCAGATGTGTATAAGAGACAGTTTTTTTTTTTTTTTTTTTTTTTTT…TC
- Condition details: aptamer strand: ATP DNA aptamer (quencher-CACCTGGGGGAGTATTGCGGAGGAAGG + anchor), 100 nM annealed; ATP concentration: 500 uM
Measurement name: switch fluorescence ratio
Just the number, please, no unit after it.

Consider the reported switch fluorescence ratio for these sequences:
[
  {
    "Residue sequence": "TTGGCGGGGA",
    "switch fluorescence ratio": 0.987
  },
  {
    "Residue sequence": "TTGCCTTTCG",
    "switch fluorescence ratio": 0.97
  },
  {
    "Residue sequence": "TGCGGGACT",
    "switch fluorescence ratio": 2.28
  }
]

[in] Endpoint output: switch fluorescence ratio of `TGAGAGTTAT` . Value?
[out] 1

[in] Endpoint output: switch fluorescence ratio of `GGATAGTCAG` . Value?
[out] 0.984

###

- Tested on: ATP;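 note: ATP exposure 15 min at 22 °C before imaging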
- Method description: switch fluorescence ratio, 500 uM ATP over buffer (Cy3 cluster intensity, sum of 5 cycles each) (fold (ratio)); higher = stronger signal-on switching upon ATP binding; sequences stand for … in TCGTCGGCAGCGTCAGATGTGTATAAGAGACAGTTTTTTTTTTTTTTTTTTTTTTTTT…TC
- Condition details: aptamer strand: ATP DNA aptamer (quencher-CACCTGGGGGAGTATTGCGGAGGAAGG + anchor), 100 nM annealed; ATP concentration: 500 uM
Measurement name: switch fluorescence ratio
Form: value (number only, do not type unit).

[
  {
    "Residue sequence": "AGTTGTGTTT",
    "Measurement name": "switch fluorescence ratio",
    "Observed value": 0.966
  }
]

[in] GET /values?readout=switch fluorescence ratio&item= `ATGGTTTTTT`
[out] 1

[in] Dear colleague, I am looking for the recorded switch fluorescence ratio of the following sequence: `TCGCGCGGAG`
[out] 1.04

[in] What does the data say about its switch fluorescence ratio? Entry: `TGATTCGGGT`
[out] 0.984

###

- Test system: ATP;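 note: ATP exposure 15 min at 22 °C before imaging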
- Method description: switch fluorescence ratio, 500 uM ATP over buffer (Cy3 cluster intensity, sum of 5 cycles each) (fold (ratio)); higher = stronger signal-on switching upon ATP binding; sequences stand for … in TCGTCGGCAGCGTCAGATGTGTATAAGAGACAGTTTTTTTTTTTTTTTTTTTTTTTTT…TC
- Condition details: aptamer strand: ATP DNA aptamer (quencher-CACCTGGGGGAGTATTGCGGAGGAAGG + anchor), 100 nM annealed; ATP concentration: 500 uM
The reader will find reported switch fluorescence ratio values listed item by item below.
Lab note: jot the number down without any unit.

Use the examples below as a reference point.
[
  {
    "Residue sequence": "CAGGTATGAA",
    "Observed value": 1
  },
  {
    "Residue sequence": "TTTACGGTGC",
    "Observed value": 1.25
  },
  {
    "Residue sequence": "GAAGGAAGTT",
    "Observed value": 1.01
  },
  {
    "Residue sequence": "TAGCGGGTTG",
    "Observed value": 1.03
  },
  {
    "Residue sequence": "TGTATGAGGT",
    "Observed value": 1.02
  },
  {
    "Residue sequence": "CAGGAGTCGG",
    "Observed value": 1.01
  }
]

[in] Item `TGGGTCCTTG` has what recorded switch fluorescence ratio?
[out] 0.989

[in] Which switch fluorescence ratio reading was recorded for the sequence `AACTGTGTAC` ?
[out] 1.06

[in] I have this sequence here, `TAGGCCCCTG` , and I need its recorded switch fluorescence ratio.
[out] 0.985

[in] Data request, read-out switch fluorescence ratio, for `CCAGGCTGAG`
[out] 1.05

[in] # switch fluorescence ratio lookup, item `GGCCCCGGGG`
[out] 1.11
